assay_overview: yeast display, Sf9 membrane polyspecificity reagent, FACS + sequencing; frameworks hold sequencing errors
metric: polyreactivity (PSR sort gate)

ordered_residues: QVQLVESGGGLVQAGGSLRLSCAASGRIFLGNAMGWYRQAPGKERELVAAITNGGGSTYYADSVKGRFTISRDNAKNTVYLQMNSLKPEDTAVYYCAAPVRQSSYTRYDSWGQGTQVTVSS
metric: polyreactivity (PSR sort gate)
reported: high polyreactivity
--
ordered_residues: QVQLVESGGGLVQAGGSLRLSCAASGRIFSGYAMGWYRQAPGKERELVAAITSVGSTNYADSVKGRFTISRDNAKYTVYLQMNSLKPEDTAVYYCAKDTGQGYYWGQGTQVTVSS
metric: polyreactivity (PSR sort gate)
reported: high polyreactivity
--
ordered_residues: HVQLVESGGGLVQAGGSLRLSCAASGRISGANMGWDRQAPGKERELGAAISNGGSTNYADSVKGRFTISRANAKNTVYLQMNSLKPEDTAVYYCAKLGPRSYSSYRYDYWGQGTQVTVSS
metric: polyreactivity (PSR sort gate)
reported: high polyreactivity
--
ordered_residues: QVQLVESGGGLFQAGGSLRLSCAASGFIFLVNAMGWYRPAPGKERELVAAISKSTGGTYYADSVKGRFTISRDNAKNTVYLQMYSLKPEDTAVYSCAADEVYPVQRDMDYWGQGTQETVSS
metric: polyreactivity (PSR sort gate)
reported: low polyreactivity
--
ordered_residues: QLQLVESGGGLVQAGGSLRLSCAASGRIFYQTAMGWYRQAPGKERELVADIASGGSTYYADSVKGRFSISRDNAKNTVHLQMNSLKREDTAVDYCATAVLYGDGWYYYWGQGTQVTVSS
metric: polyreactivity (PSR sort gate)
reported: low polyreactivity
--
ordered_residues: QVQLVESGGGLVQAGGSLRLSCAASGFTIYGYVMGWYRQAPGKERELVAAISWSGGSTYYADSVKGRFTISRDNAKNTVYLQMNSLKPEDTAVYYCAAEGWSDYTSRLYDYWGQGTQVTVSS
metric: polyreactivity (PSR sort gate)
reported: low polyreactivity
--
ordered_residues: QVQLVESGGGLVQAGGSLRLSCAASGSIFNGNAMGWYRQAPGKERELVAAISRNGGSTYYADSVKGRFTISRDNAKNTVYLQMNSLKPEDTAVYYCAVRKRPHGYLAFGYWGQGTQVTVSS
metric: polyreactivity (PSR sort gate)
reported: low polyreactivity
--
ordered_residues: QVQLVESGGGLVQAGGSLRLSCAASGLIFRYYVMGWYRQAPGKERDFVASISYSGGRTYYADSVKGRFTISRDYAKNTVYLQMNRLKPEDTAVYYCAGGYYYHRYSYPGDYWGQGTQVTVSS
metric: polyreactivity (PSR sort gate)
reported: high polyreactivity
--
ordered_residues: QVQLVESGGGLVQAGGSLRLSCAASGRTFGYYGLGWSRQAPGKERELVAAITGSGGSTYYADSVKGRFTISRDNAKNTVYLQMNSLKPEDTAVYYCNTARRHGQTQGGDYWGQGTQVTVSS
metric: polyreactivity (PSR sort gate)
reported: high polyreactivity
